These entries and their values trace back to patent US20130324474A1.

target: human c-Ret (human, UniProt P07949 29-1114, phosphorylation at Y1016 is the readout); experiment: cell-based or functional assay
Sequence (P07949 29-1114): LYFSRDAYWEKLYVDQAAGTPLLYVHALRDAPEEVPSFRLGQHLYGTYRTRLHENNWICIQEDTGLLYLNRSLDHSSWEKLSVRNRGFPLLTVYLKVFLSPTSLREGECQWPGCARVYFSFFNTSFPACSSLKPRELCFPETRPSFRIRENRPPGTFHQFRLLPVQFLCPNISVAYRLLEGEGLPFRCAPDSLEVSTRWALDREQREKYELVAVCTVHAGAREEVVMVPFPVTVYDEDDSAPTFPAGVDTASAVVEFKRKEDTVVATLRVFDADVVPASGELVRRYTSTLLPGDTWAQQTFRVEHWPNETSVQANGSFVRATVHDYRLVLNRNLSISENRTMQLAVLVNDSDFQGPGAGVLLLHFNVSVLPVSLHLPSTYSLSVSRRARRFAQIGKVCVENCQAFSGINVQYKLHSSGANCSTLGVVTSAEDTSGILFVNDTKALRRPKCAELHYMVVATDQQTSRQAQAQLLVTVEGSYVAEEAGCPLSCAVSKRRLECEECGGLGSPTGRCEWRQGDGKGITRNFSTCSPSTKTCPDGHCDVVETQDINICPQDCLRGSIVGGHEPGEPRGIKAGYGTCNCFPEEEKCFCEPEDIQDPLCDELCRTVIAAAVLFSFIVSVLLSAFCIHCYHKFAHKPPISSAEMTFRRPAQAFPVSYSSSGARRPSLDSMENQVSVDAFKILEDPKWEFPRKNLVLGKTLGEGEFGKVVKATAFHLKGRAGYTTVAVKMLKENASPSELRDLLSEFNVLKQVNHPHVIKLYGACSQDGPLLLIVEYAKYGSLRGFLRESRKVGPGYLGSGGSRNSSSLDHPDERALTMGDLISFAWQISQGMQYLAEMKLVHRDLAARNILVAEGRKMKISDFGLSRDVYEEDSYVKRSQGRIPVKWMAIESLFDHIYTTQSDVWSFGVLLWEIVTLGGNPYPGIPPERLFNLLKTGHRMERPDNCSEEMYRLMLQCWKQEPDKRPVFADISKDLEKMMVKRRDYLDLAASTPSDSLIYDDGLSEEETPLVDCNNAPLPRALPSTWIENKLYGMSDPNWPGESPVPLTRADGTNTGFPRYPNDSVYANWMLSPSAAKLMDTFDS
quantity: c-Ret phosphorylation at Y1016, EC50

[[record]]
binder = "CHO-Δ31-GDNF (SEQ ID NO: 8) (ligand, N-glycosylated at N49 (numbering of mature GDNF), Expressed in CHO cells; also called CHO-Δ31-GDNFv; WT CHO Δ31-GDNFv) RGQRGKNRGCVLTAIHLNVTDLGLGYETKEELIFRYCSGSCDAAETTYDKILKNLSRNRRLVSDKVGQACCRPIAFDDDLSFLDDNLVYHILRKHSAKRCGCI"
quantity = "c-Ret phosphorylation at Y1016, EC50"
result = "0.008 to 0.015 µg/mL"

[[record]]
binder = "CHO-Δ31-N38Q-D95E-GDNF (SEQ ID NO: 9) (ligand, N-glycosylated at N49 (numbering of mature GDNF), Expressed in CHO cells; also called CHO-Δ31-N38Q-D95E-GDNFv; GDNF variant 2) RGQRGKQRGCVLTAIHLNVTDLGLGYETKEELIFRYCSGSCDAAETTYDKILKNLSRNRRLVSEKVGQACCRPIAFDDDLSFLDDNLVYHILRKHSAKRCGCI"
quantity = "c-Ret phosphorylation at Y1016, EC50"
result = "0.008 to 0.015 µg/mL"

[[record]]
binder = "E. Coli-WT-GDNF (SEQ ID NO: 3) (ligand, Expressed in E. coli, not glycosylated; also called WT E. coli GDNF; WT-E. coli GDNF) MSPDKQMAVLPRRERNRQAAAANPENSRGKGRRGQRGKNRGCVLTAIHLNVTDLGLGYETKEELIFRYCSGSCDAAETTYDKILKNLSRNRRLVSDKVGQACCRPIAFDDDLSFLDDNLVYHILRKHSAKRCGCI"
quantity = "c-Ret phosphorylation at Y1016, EC50"
result = "0.008 to 0.015 µg/mL"

[[record]]
binder = "CHO Δ31-N38Q-K84A-R88K-R90K-D95E-K125E-R130E GDNF (SEQ ID NO: 15) (ligand) RGQRGKQRGCVLTAIHLNVTDLGLGYETKEELIFRYCSGSCDAAETTYDKILANLSKNKRLVSEKVGQACCRPIAFDDDLSFLDDNLVYHILREHSAKECGCI"
quantity = "c-Ret phosphorylation at Y1016, EC50"
result = "0.008 to 0.015 µg/mL"

[[record]]
binder = "CHO-Δ31-N38Q-K84A-R88K-R90K-D95E-GDNF (SEQ ID NO: 12) (ligand, N-glycosylated at N49 (numbering of mature GDNF), Expressed in CHO cells; also called Δ31-N38Q-KAKKE; GDNF variant 3) RGQRGKQRGCVLTAIHLNVTDLGLGYETKEELIFRYCSGSCDAAETTYDKILANLSKNKRLVSEKVGQACCRPIAFDDDLSFLDDNLVYHILRKHSAKRCGCI"
quantity = "c-Ret phosphorylation at Y1016, EC50"
result = "0.008 to 0.015 µg/mL"

